# Test system: Kato III
# testDescription: MTS assay (cell growth inhibition), Kato III
# Type: cell-based
# cond: Kato III cells, 72 hours incubation with test compound; concentration not given
propertyName: MTS CELL KILL DATA (% INHIBITION) Kato III

[
  {
    "molecule": "O=C1c2cnc3[nH]ncc3c2C(=O)N1CC1CCC1",
    "result": "C (C = <50% INHIBITION)"
  },
  {
    "molecule": "CC(C)(C)OC(=O)N1CCC(CN2C(=O)c3cnc4[nH]ncc4c3C2=O)CC1",
    "result": "C (C = <50% INHIBITION)"
  },
  {
    "molecule": "CC(CCN1C(=O)c2cnc3[nH]ncc3c2C1=O)c1ccccc1 (stereo not drawn)",
    "result": "C (C = <50% INHIBITION)"
  },
  {
    "molecule": "C[C@@H](CN1C(=O)c2cnc3[nH]ncc3c2C1=O)c1ccccc1",
    "result": "C (C = <50% INHIBITION)"
  }
]
